Test system: Staphylococcus aureus
Assay: Antibacterial activity against Staphylococcus aureus ATCC 25923 by standard dilution assay
Assay type: functional
OUTCOME_MEASURE: MIC80 (µg/mL)

{"columns": ["CHEMICAL_STRUCTURE", "OUTCOME_MEASURE", "U", "EXPERIMENTAL_VALUE"],
 "data": [
  ["CC[C@H]1OC(=O)[C@H](C)[C@@H](O[C@H]2C[C@@](C)(OC)[C@@H](OC(=O)NCCO[C@@H]3O[C@@H](C)[C@H](O)[C@@H](O)[C@H]3O)[C@H](C)O2)[C@H](C)[C@@H](O[C@@H]2O[C@H](C)C[C@H](N(C)C)[C@H]2O)[C@](C)(O)C[C@@H](C)CN(C)[C@H](C)[C@H]2OC(=O)O[C@@]21C", "MIC80", "µg/mL", 16],
  ["CC[C@H]1OC(=O)[C@H](C)[C@@H](O[C@H]2C[C@@](C)(OC)[C@@H](OC(=O)NCCO[C@@H]3OC[C@@H](O)[C@H](O)[C@H]3O)[C@H](C)O2)[C@H](C)[C@@H](O[C@@H]2O[C@H](C)C[C@H](N(C)C)[C@H]2O)[C@](C)(O)C[C@@H](C)CN(C)[C@H](C)[C@H]2OC(=O)O[C@@]21C", "MIC80", "µg/mL", 8],
  ["CC[C@H]1OC(=O)[C@H](C)[C@@H](O[C@H]2C[C@@](C)(OC)[C@@H](O)[C@H](C)O2)[C@H](C)[C@@H](O[C@@H]2O[C@H](C)C[C@H](N(C)C)[C@H]2O)[C@](C)(O)C[C@@H](C)CN(C)[C@H](C)[C@@H](O)[C@]1(C)O", "MIC80", "µg/mL", 16],
  ["CC[C@H]1OC(=O)[C@H](C)[C@@H](O[C@H]2C[C@@](C)(OC)[C@@H](OC(=O)NCCO[C@@H]3O[C@H](CO)[C@@H](O)[C@H](O)[C@@H]3O)[C@H](C)O2)[C@H](C)[C@@H](O[C@@H]2O[C@H](C)C[C@H](N(C)C)[C@H]2O)[C@](C)(O)C[C@@H](C)CN(C)[C@H](C)[C@H]2OC(=O)O[C@@]21C", "MIC80", "µg/mL", 8],
  ["CC[C@H]1OC(=O)[C@H](C)[C@@H](O[C@H]2C[C@@](C)(OC)[C@@H](O)[C@H](C)O2)[C@H](C)[C@@H](O[C@@H]2O[C@H](C)C[C@H](N(C)C)[C@H]2O)[C@](C)(O)C[C@@H](C)C(=O)[C@H](C)[C@@H](O)[C@]1(C)O", "MIC80", "µg/mL", 16],
  ["CC[C@H]1OC(=O)[C@H](C)[C@@H](O[C@H]2C[C@@](C)(OC)[C@@H](OC(=O)NCCO[C@@H]3O[C@H](CO)[C@H](O)[C@H](O)[C@H]3O)[C@H](C)O2)[C@H](C)[C@@H](O[C@@H]2O[C@H](C)C[C@H](N(C)C)[C@H]2O)[C@](C)(O)C[C@@H](C)CN(C)[C@H](C)[C@H]2OC(=O)O[C@@]21C", "MIC80", "µg/mL", 32],
  ["CC[C@H]1OC(=O)[C@H](C)[C@@H](O[C@H]2C[C@@](C)(OC)[C@@H](OC(=O)NCCO[C@@H]3O[C@H](CO)[C@@H](O)[C@H]3O)[C@H](C)O2)[C@H](C)[C@@H](O[C@@H]2O[C@H](C)C[C@H](N(C)C)[C@H]2O)[C@](C)(O)C[C@@H](C)CN(C)[C@H](C)[C@H]2OC(=O)O[C@@]21C", "MIC80", "µg/mL", 4]
]}

====

System: Escherichia coli
Experiment: Antibacterial activity against Escherichia coli 236 by standard dilution assay
Assay type: functional
Here the recorded MIC80 is given for each entry.
OUTCOME_MEASURE: MIC80 (µg/mL)

{"columns": ["CHEMICAL_STRUCTURE", "EXPERIMENTAL_TARGET", "EXPERIMENTAL_VALUE"],
 "data": [
  ["CC[C@H]1OC(=O)[C@H](C)[C@@H](O[C@H]2C[C@@](C)(OC)[C@@H](OC(=O)NCCO[C@@H]3O[C@H](CO)[C@@H](O)[C@H]3O)[C@H](C)O2)[C@H](C)[C@@H](O[C@@H]2O[C@H](C)C[C@H](N(C)C)[C@H]2O)[C@](C)(O)C[C@@H](C)CN(C)[C@H](C)[C@H]2OC(=O)O[C@@]21C", "Escherichia coli", 64],
  ["CC[C@H]1OC(=O)[C@H](C)[C@@H](O[C@H]2C[C@@](C)(OC)[C@@H](OC(=O)NCCO[C@@H]3O[C@H](CO)[C@@H](O)[C@H](O)[C@H]3O)[C@H](C)O2)[C@H](C)[C@@H](O[C@@H]2O[C@H](C)C[C@H](N(C)C)[C@H]2O)[C@](C)(O)C[C@@H](C)CN(C)[C@H](C)[C@H]2OC(=O)O[C@@]21C", "Escherichia coli", 64],
  ["CC[C@H]1OC(=O)[C@H](C)[C@@H](O[C@H]2C[C@@](C)(OC)[C@@H](OC(=O)NCCO[C@@H]3O[C@H](CO)[C@H](O)[C@H](O)[C@H]3O)[C@H](C)O2)[C@H](C)[C@@H](O[C@@H]2O[C@H](C)C[C@H](N(C)C)[C@H]2O)[C@](C)(O)C[C@@H](C)CN(C)[C@H](C)[C@H]2OC(=O)O[C@@]21C", "Escherichia coli", 128],
  ["CC[C@H]1OC(=O)[C@H](C)[C@@H](O[C@H]2C[C@@](C)(OC)[C@@H](O)[C@H](C)O2)[C@H](C)[C@@H](O[C@@H]2O[C@H](C)C[C@H](N(C)C)[C@H]2O)[C@](C)(O)C[C@@H](C)C(=O)[C@H](C)[C@@H](O)[C@]1(C)O", "Escherichia coli", 256],
  ["CC[C@H]1OC(=O)[C@H](C)[C@@H](O[C@H]2C[C@@](C)(OC)[C@@H](OC(=O)NCCO[C@@H]3O[C@H](CO)[C@@H](O)[C@H](O)[C@@H]3O)[C@H](C)O2)[C@H](C)[C@@H](O[C@@H]2O[C@H](C)C[C@H](N(C)C)[C@H]2O)[C@](C)(O)C[C@@H](C)CN(C)[C@H](C)[C@H]2OC(=O)O[C@@]21C", "Escherichia coli", 64],
  ["CC[C@H]1OC(=O)[C@H](C)[C@@H](O[C@H]2C[C@@](C)(OC)[C@@H](O)[C@H](C)O2)[C@H](C)[C@@H](O[C@@H]2O[C@H](C)C[C@H](N(C)C)[C@H]2O)[C@](C)(O)C[C@@H](C)CN(C)[C@H](C)[C@@H](O)[C@]1(C)O", "Escherichia coli", 256],
  ["CC[C@H]1OC(=O)[C@H](C)[C@@H](O[C@H]2C[C@@](C)(OC)[C@@H](OC(=O)NCCO[C@@H]3O[C@H](CO)[C@@H](O[C@H]4O[C@H](CO)[C@@H](O)[C@H](O)[C@H]4O)[C@H](O)[C@H]3O)[C@H](C)O2)[C@H](C)[C@@H](O[C@@H]2O[C@H](C)C[C@H](N(C)C)[C@H]2O)[C@](C)(O)C[C@@H](C)CN(C)[C@H](C)[C@H]2OC(=O)O[C@@]21C", "Escherichia coli", 128],
  ["CC[C@H]1OC(=O)[C@H](C)[C@@H](O[C@H]2C[C@@](C)(OC)[C@@H](OC(=O)NCCO[C@@H]3O[C@H](CO)[C@@H](O[C@@H]4O[C@H](CO)[C@@H](O)[C@H](O)[C@H]4O)[C@H](O)[C@H]3O)[C@H](C)O2)[C@H](C)[C@@H](O[C@@H]2O[C@H](C)C[C@H](N(C)C)[C@H]2O)[C@](C)(O)C[C@@H](C)CN(C)[C@H](C)[C@H]2OC(=O)O[C@@]21C", "Escherichia coli", 128],
  ["CC[C@H]1OC(=O)[C@H](C)[C@@H](O[C@H]2C[C@@](C)(OC)[C@@H](OC(=O)NCCO[C@@H]3O[C@@H](C)[C@H](O)[C@@H](O)[C@H]3O)[C@H](C)O2)[C@H](C)[C@@H](O[C@@H]2O[C@H](C)C[C@H](N(C)C)[C@H]2O)[C@](C)(O)C[C@@H](C)CN(C)[C@H](C)[C@H]2OC(=O)O[C@@]21C", "Escherichia coli", 128],
  ["CC[C@H]1OC(=O)[C@H](C)[C@@H](O[C@H]2C[C@@](C)(OC)[C@@H](OC(=O)NCCO[C@@H]3OC[C@@H](O)[C@H](O)[C@H]3O)[C@H](C)O2)[C@H](C)[C@@H](O[C@@H]2O[C@H](C)C[C@H](N(C)C)[C@H]2O)[C@](C)(O)C[C@@H](C)CN(C)[C@H](C)[C@H]2OC(=O)O[C@@]21C", "Escherichia coli", 64]
]}
